# Tested on: UWB1.289+BRCA1 stable cell line (wild-type BRCA1 restored)
# protocol.notes: CellTiter-Glo (CTG) cell growth inhibition, UWB1.289+BRCA1
# Type: cell-based, human
# assay.conditions: Homo sapiens, UWB1289; UWB1.289 + BRCA1 cells, single agent, CTG; read-out: Single Agent IC50 (mean ± SEM) Niraparib
quantity: IC50 (µM)

{"columns": ["structure.string", "reported.result"],
 "data": [
  ["NC(=O)c1cccc2cn(-c3ccc([C@@H]4CCCNC4)cc3)nc12", 1.4]
]}

----------
# Test system: UWB1.289+BRCA1 stable cell line (wild-type BRCA1 restored)
# protocol.notes: CellTiter-Glo (CTG) cell growth inhibition, UWB1.289+BRCA1
# Format: cell-based, human
# assay.conditions: Homo sapiens, UWB1289; UWB1.289 + BRCA1 cells, single agent, CTG; read-out: Single Agent IC50 (mean ± SEM) Compound A

{"columns": ["structure.string", "system.under.test", "IC50, nM"],
 "data": [
  ["CC(C)NCCOc1ncc(-c2cc3c4c(cnc3cc2F)N(C)C(=O)C42CCC2)cc1NS(C)(=O)=O", "UWB1.289+BRCA1 stable cell line (wild-type BRCA1 restored)", 800]
]}

----------
# Tested on: Capan-1 BRCA2 mutant human pancreatic cell line
# protocol.notes: CellTiter-Glo (CTG) cell growth inhibition, Capan-1
# Type: cell-based
# assay.conditions: Homo sapiens, 312 h; Capan-1 cells, single agent, 13 days, CTG; read-out: Single Agent IC50 (mean ± SEM) Niraparib
pIC50: −log10 of the molar value.
quantity: pIC50

{"columns": ["structure.string", "reported.result"],
 "data": [
  ["NC(=O)c1cccc2cn(-c3ccc([C@@H]4CCCNC4)cc3)nc12", 6.26]
]}

Every entry's value here was drawn from patent US20260240834A1.
